Hi there, I'd appreciate the recorded IC50 for every entry that follows.
Test system: Rhizoctonia solani
Experiment: Fungicidal activity against Rhizoctonia solani assessed as inhibition of hyphal growth by radial growth test
Type: functional, organism-based
Answers are plain numbers, in µg/mL.

Examples with answers:
[
  {
    "compound": "CC(=O)n1cc(CCCC(=O)O)c2ccccc21",
    "IC50, µg/mL": 117
  },
  {
    "compound": "O=C(O)Cc1cn(C(=O)c2ccccc2)c2ccccc12",
    "IC50, µg/mL": 1240
  },
  {
    "compound": "O=C(O)CCCc1cn(C(=O)c2ccccc2)c2ccccc12",
    "IC50, µg/mL": 663
  },
  {
    "compound": "COCC(=O)N(c1c(C)cccc1C)C(C)C(=O)OC (centres undefined) [METALAXYL]",
    "IC50, µg/mL": 231
  },
  {
    "compound": "c1ccc(-c2cc3ccccc3[nH]2)cc1",
    "IC50, µg/mL": 34.6
  }
]

Below is a list of compounds. For each, state its recorded IC50.
1. O=C(O)CCCc1c[nH]c2ccccc12
2. CC(=O)n1c(-c2ccccc2)cc2ccccc21
3. O=C(c1ccccc1)n1c(-c2ccccc2)cc2ccccc21
4. O=C(O)Cc1c[nH]c2ccccc12

[644, 37.5, 122, 1010]
